test.details: chemical genetic growth profiling, strain panel (AID 1159580);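 also: tested at 20 µM; growth read once vehicle control cultures reached saturation at 30 °C; 1 = growth at the plate median or of vehicle wells; lower values mean less growth of the strain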
experimental.context: S. cerevisiae deletion strains, growth OD, locus YPL106C, strain sse1, hits give low values
The whole screen tested about 5,500 compounds, of which about 2,000 (36%) were called active. Roughly 18% stayed inconclusive and do not appear here. Some of the results follow.
Sorting guide: entries reporting normalized growth beneath 1 go in the True pile, the rest go in the False pile.

molecule	assigned.class
CCN(CC)C(C)CN1c2ccccc2Sc2ccccc21 (stereo not given)	True
O=[N+]([O-])c1cccc2cn[nH]c12	True
Nc1cc(-c2ccncc2)c[nH]c1=O	True
CNCCCN1c2ccccc2CCc2ccccc21	False
CC(CN(C)C)CN1c2ccccc2CCc2ccccc21 (stereo not given)	True
CC(CN1c2ccccc2Sc2ccccc21)N(C)C (stereo not given)	True
C[C@@H]1O[C@@H](O[C@H]2C[C@@H](O)[C@]3(CO)C4C(CC[C@]3(O)C2)[C@@]2(O)CC[C@H](C3=CC(=O)OC3)[C@@]2(C)C[C@H]4O)[C@H](O)[C@H](O)[C@H]1O (stereo not given in full)	False

====

test.details: chemical genetic growth profiling, strain panel (AID 1159580);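 also: tested at 20 µM; growth read once vehicle control cultures reached saturation at 30 °C; 1 = growth at the plate median or of vehicle wells; lower values mean less growth of the strain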
experimental.context: S. cerevisiae deletion strains, growth OD, locus YMR129W, hits give low values
Out of some 5,500 compounds screened, about 2,000 (36%) were called active. About 18% were inconclusive and are not listed. This is one part of the list.
normalized growth: recorded values
parameter: normalized growth

                               given_smiles  measured_value
0  O=C(O)c1ccccc1C(=O)Nc1ccc(S(=O)(=O)Nc2nccs2)cc1           0.989
1               CC12CC3CC(C)(C1)CC(N)(C3)C2           0.979
2  Cc1cc(O)c(C=O)c2c1C(=O)Oc1c(COC(=O)/C=C/C(=O)O)c(O)c(C(=O)O)c(C)c1O2            1.01
3  O=C(O)CCC(=O)Nc1ccc(S(=O)(=O)Nc2nccs2)cc1           0.977
4            O=c1cc(-c2ccccc2)oc2cccc(O)c12           0.979
5  Cc1nc2ccccn2c(=O)c1CCN1CCC(C(=O)c2ccc(F)cc2)CC1           0.998

====

test.details: chemical genetic growth profiling, strain panel (AID 1159580);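 also: tested at 20 µM; growth read once vehicle control cultures reached saturation at 30 °C; 1 = growth at the plate median or of vehicle wells; lower values mean less growth of the strain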
experimental.context: S. cerevisiae deletion strains, growth OD, locus YML032C, strain rad52, hits give low values
The whole screen tested about 5,500 compounds, of which about 2,000 (36%) were called active. Roughly 18% stayed inconclusive and do not appear here. This is one part of the list.
parameter: normalized growth

In [3]: df
Out[3]:
                                    compound  measured_value
 0  COc1cc(C(=O)O)c2c(c1C)OC(=O)c1c(C)cc(O)c(C=O)c1O2           0.996
 1                   O=C(Nc1ccccc1)Nc1ccccc1            0.98
 2  Cc1cccc(Nc2ccncc2S(=O)(=O)NC(=O)NC(C)C)c1            1.03
 3  CCCCCC1C(=O)CCC1CC(=O)O (configuration not stated)           0.987
 4  CCCCCC1C(=O)CCC1CC(=O)OC (configuration not stated)           0.983
 5  Cc1cc(O)c(C=O)c2c1C(=O)Oc1c(COC(=O)/C=C/C(=O)O)c(O)c(C(=O)O)c(C)c1O2            1.01
 6                CC(=O)Nc1nnc(S(N)(=O)=O)s1            1.01
 7  Cc1cc(C)cc(OCC2CNC(=O)O2)c1 (configuration not stated)            1.02
 8  C[C@H](CCC(=O)O)[C@H]1CCC2C3C(CC[C@@]21C)[C@@]1(C)CC[C@@H](O)C[C@H]1C[C@H]3O (some centres not stated)            1.02
 9  Cc1cc(O)c(C=O)c2c1C(=O)Oc1c(C)c(O)c3c(c1O2)C(O)OC3=O (configuration not stated)           0.995
10                    CCCCSP(=O)(SCCCC)SCCCC            1.01
11                   O=C(Nc1ccccc1)c1ccccc1O            0.98
